# Tested on: MOLM14;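 further: after 48 h exposure read by CellTiter-Glo luminescence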
# protocol_text: cell viability relative to vehicle control; higher = less cytotoxic
# recorded_conditions: 10 µM; SRSF2 genotype: SRSF2 P95H/wt
Structures can show the parent of a compound that is named as a salt.
quantity_measured: cell viability (%)
All answers are understood in %, so give the number only.

These recorded examples may help you get a feel for the data.
molecule | cell viability [%]
Cc1nc(Nc2ccc(F)cc2)nc(N2CCc3ccccc3C2C)c1C (stereo unspecified) [Revaprazan Hydrochloride] | 63.3
O=C(O)P(=O)(O)O [Foscarnet Sodium] | 101
CC(O)COCC1OC2OC3C(COCC(C)O)OC(OC4C(COCC(C)O)OC(OC5C(COCC(C)O)OC(OC6C(COCC(C)O)OC(OC7C(COCC(C)O)OC(OC8C(COCC(C)O)OC(OC1C(O)C2O)C(O)C8O)C(O)C7O)C(O)C6O)C(O)C5O)C(O)C4O)C(O)C3O (stereo unspecified) | 106

Ask | Enter reported cell viability observed with MOLM14 for `Cc1cc(C)c(S(=O)(=O)n2cc(C)cc2C)c(C)c1`
Reply | 84.7

Ask | # returns recorded cell viability (system: MOLM14) for O=c1c(O)c(-c2ccc(O)c(O)c2)oc2cc(O)cc(O)c12 [Quercetin dihydrate (Sophoretin)];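 further: after 48 h exposure read by CellTiter-Glo luminescence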
Reply | 100

Ask | Value wanted: cell viability (MOLM14) of entry CCCCCCCC/C=C\CCCCCCCC(=O)OCC [Ethyl Oleate]
Reply | 92.3

Ask | Query for MOLM14: what cell viability does the record show for `O=c1ccc2ccc(OCCCCN3CCN(c4cccc5sccc45)CC3)cc2[nH]1` ?
Reply | 33
